Provide the recorded IC50 for the entries that follow.
Test system: full length human vWF binding to lyophilized platelets
Test: Full length human von Willebrand Factor platelet binding assay (FACS)
Format: cell-based
Conditions: 5 nM full length human vWF, lyophilized platelets, botrocetin; read-out: Inhibition of full length hVWF binding in FACS assay, Average IC50
Procedure: The amount of vWF bound to fixed platelets can be measured with an antibody to vWF. The fluorescence signal from bound antibody incubated with a fluorescein conjugated secondary antibody is then detected and quantified by flow cytometry. The ability of an aptamer of the invention to block vWF binding to platelets is correlated with a reduction in fluorescence signal. Aptamer potency to block human vWF binding to lyophilized platelets was assessed by flow cytometric analysis. […]
Oligonucleotides are written 5' to 3', each unit as a sugar letter and its base; * is a phosphorothioate linkage, no mark a phosphodiester; rarer units and linkages stand in square brackets, end groups in braces. Plain capitals give the bases only. d = 2'-deoxy (DNA); r = 2'-OH (RNA); f = 2'-fluoro
Answer with a number only, understood to be in nM.

Kindly note the recorded IC50 for AMX203.G9: rRdY aptamer clone (nucleic acid) rGrGrArGdCrGdCrAdCdTdCrArGdCdCrAdCrGrGrGrGdTrGrGrGdTrArGrAdCrGrGdCrGrGrGdTrAdTrGdTrGrGdCdTrGrGdTrGdTdCrGrArArGrGrGdTdTdTdCrGrAdCdCdTdCdTdCdTrGdCdTrArGdC , which is 4.7

Kindly note the recorded IC50 for AMX201.C8: rRfY aptamer clone (nucleic acid) rGrGrArGfCrGfCrAfCfUfCrArGfCfCrAfCfCfCfUfCrGfCrArArGfCrAfUfUfUfUrArArGrArAfUrGrAfCfUfUrGfUrGfCfCrGfCfUrGrGfCfUrGfUfUfUfUfCrGrAfCfCfUfCfUfCfUrGfCfUrArGfC , which is 0.528

Each recorded value in this set is attributed to patent US7998940B2.
